Below is a list of entries, each paired with its recorded Bottom value.
Biological target: T1, cyno CD39 on the cell surface (293T/17-cyno CD39 cells) (cyno, UniProt P49961 7-510 (human entry))
T1 construct: 293T/17 cells stably transfected with the cyno CD39 gene
T1 chain: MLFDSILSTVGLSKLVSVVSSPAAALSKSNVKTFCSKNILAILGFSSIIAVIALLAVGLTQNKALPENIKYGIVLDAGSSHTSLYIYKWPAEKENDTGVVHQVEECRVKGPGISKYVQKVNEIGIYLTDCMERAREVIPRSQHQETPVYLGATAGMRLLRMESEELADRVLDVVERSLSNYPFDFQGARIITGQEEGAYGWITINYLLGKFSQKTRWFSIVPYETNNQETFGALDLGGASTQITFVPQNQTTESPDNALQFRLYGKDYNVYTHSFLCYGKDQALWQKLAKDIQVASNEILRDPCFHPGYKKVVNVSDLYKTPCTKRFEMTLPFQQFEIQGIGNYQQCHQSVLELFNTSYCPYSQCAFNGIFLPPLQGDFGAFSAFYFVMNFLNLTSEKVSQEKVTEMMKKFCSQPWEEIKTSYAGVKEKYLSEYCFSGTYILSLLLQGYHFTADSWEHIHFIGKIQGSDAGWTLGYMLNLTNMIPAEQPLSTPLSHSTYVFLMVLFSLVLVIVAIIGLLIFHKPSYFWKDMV
Test: flow cytometry on 293T/17-cyno CD39 cells

Binder: 217 hIgG2 (antibody, V domains shown, Chimeric antibody: mouse Fv fused to the human IgG2 constant region) VH: EVQLVESGGGLVKPGGSLKLSCAASGFTFSDYGMHWVRQAPEKGLEWVAYISSGSSVIYYVDTVKGRFTISRDNAKNTLFLQMTSLRSEDTAMYYCARDLYYDHVLDSWGQGTTLTVSS VL: DIQMTQSPSSLSASLGERVSLTCRASQEIGGYLSWLQQKPDGTIKRLIYAASTLDSGVPKRFSGSRSGSDYSLTISSLESEDFADYYCLQYASYPRTFGGGTKLEIKR
Bottom: 3
--
Binder: 216 hIgG2 (antibody, V domains shown, Chimeric antibody: mouse Fv fused to the human IgG2 constant region; also called chimeric antibody 216) VH: EVQLVESGGGLVKPGGSLKLPCAASGFTFSDYGMHWVRQAPEKGLEWVAYISSGSSIIYYADTVKGRFTISRDNAKNTLFLQMTSLRSEDTAMYYCARDLYYDHVLDYWGQGTTLTVAS VL: DIQMTQSPSSLSASLGERVSLTCRASQEISGYLIWLQQKPDGTIKRLIYAASTLDSGVPKRFSGNRSGSDYSLTISSLESEDFADYYCLQYASYPRTFGGGTKLEIKR
Bottom: 1.81
--
Binder: 219 hIgG2 (antibody, V domains shown, Chimeric antibody: mouse Fv fused to the human IgG2 constant region; also called chimeric antibody 219) VH: EVQLVESGGGLVKPGGSLKLSCAASGFTFSDYGMHWVRQAPEKGLEWVAYISSGSSIRYYADTVKGRFTISRDNAKNTLFLQMTSLRSEDTAIYYCARDLYYDHVLDYWGQGTTLTVSS VL: DIQMTQSPSSLSASLGERVSLTCRASQEVSGYLNWLQQKPDGTIKRLIYAASTLDSGVPKRFSGSRSGSDYSLTISSLESEDFADYYCLQYASYPRTFGGGTKVEIKR
Bottom: 3.33
--
Binder: 201 hIgG2 (antibody, V domains shown, Chimeric antibody: mouse Fv fused to the human IgG2 constant region, expressed in 293F cells; also called chimeric antibody 201) VH: EVQLVESGGGLVKPGGSLKLSCAASGFTFSDYGMHWVRQAPEKGLEWVAYISSGSSIMYYADTVKGRFTISRDNAKNTLFLQMASLRSEDTAMYYCARDLYYDHVLDYWGQGTTLTVSS VL: DIQMTQSPSSLSASLGERVSLTCRASQEIRGYLIWLQQKPGGTIKRLIYAASTLDSGVPKRFSGSRSGSDYSLTISSLESEDFADYYCLQYTSYPRTFGGGTKLEIKR
Bottom: 3.23
